# Test system: MDA-MB-468
# methodDescription: Cell growth inhibition assay (CellTiter-Glo), breast cancer cell line MDA-MB-468
# Format: cell-based
# conditionSummary: Homo sapiens; MDA-MB-468 cells, 96 hours
assayReadout: IC50 (µM)

| compound | targetOrSystem | measureUnit | IC50 |
| --- | --- | --- | --- |
| CS(=O)(=O)[C@@]1(F)CCOc2cc3sc(C(=O)Nc4cc(Cl)nc(Oc5ccc(Cl)cc5)c4)cc3cc21 | MDA-MB-468 | µM | 0.0025 |

[1] Cc1cc(Oc2cc(NC(=O)c3cc4cc5c(cc4s3)OCCC5S(C)(=O)=O)cc(Cl)n2)ccc1Cl (stereo not shown)
[2] CS(=O)(=O)C1CCOc2cc3sc(C(=O)Nc4cc(Cl)nc(Oc5cccc(Cl)c5)c4)cc3cc21 (stereo not shown)
[3] O=C(Nc1cc(Cl)nc(Oc2ccc(Cl)cc2)c1)c1cc2cc3c(cc2s1)OCCC3N1CCCC1=O (stereo not shown)
Task: Hey, can you sort those compounds up there by IC50, smallest first? Please reply with the labels ordered as requested. Many thanks.
Result: 1, 2, 3

----------
# targetOrSystem: STAT3 (Homo sapiens, UniProt P40763)
# Construct: plasmid pSTAT3-TA-luc), which contains a stably operating STAT3 promoter; endogenous in cells
# Sequence (P40763 whole entry): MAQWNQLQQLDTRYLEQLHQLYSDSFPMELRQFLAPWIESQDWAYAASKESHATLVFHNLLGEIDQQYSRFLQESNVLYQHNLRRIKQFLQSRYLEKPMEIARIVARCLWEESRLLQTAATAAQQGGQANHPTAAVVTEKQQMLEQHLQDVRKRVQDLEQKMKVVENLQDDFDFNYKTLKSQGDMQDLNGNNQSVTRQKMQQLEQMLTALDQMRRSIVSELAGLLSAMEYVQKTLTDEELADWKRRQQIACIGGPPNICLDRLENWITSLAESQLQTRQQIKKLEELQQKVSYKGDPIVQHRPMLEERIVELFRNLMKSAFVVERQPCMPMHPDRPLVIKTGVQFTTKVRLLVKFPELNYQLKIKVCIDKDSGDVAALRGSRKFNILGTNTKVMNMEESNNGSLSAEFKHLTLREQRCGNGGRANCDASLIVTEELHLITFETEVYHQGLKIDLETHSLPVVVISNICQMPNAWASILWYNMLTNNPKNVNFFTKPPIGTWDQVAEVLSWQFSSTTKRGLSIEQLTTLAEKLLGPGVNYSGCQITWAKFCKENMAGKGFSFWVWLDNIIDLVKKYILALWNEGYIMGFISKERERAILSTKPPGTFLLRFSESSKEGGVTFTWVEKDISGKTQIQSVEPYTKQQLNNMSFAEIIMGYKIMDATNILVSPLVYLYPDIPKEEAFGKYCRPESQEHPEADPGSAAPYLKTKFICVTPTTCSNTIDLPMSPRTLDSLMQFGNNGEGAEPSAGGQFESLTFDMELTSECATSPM
# methodDescription: STAT3 reporter gene (luciferase) assay in LNCaP stable cell line stimulated with IL-6
# Format: cell-based
# conditionSummary: LNCaP stable cell line (pSTAT3-TA-luc), IL-6 10 ng/mL, 24 hours
assayReadout: IC50 (µM)

// solved cases for IC50 follow
| molecule | measureUnit | IC50 |
| --- | --- | --- |
| CC1(S(C)(=O)=O)CCOc2cc3sc(C(=O)Nc4cc(Cl)nc(Oc5ccc(Cl)cc5)c4)cc3cc21 (stereo not shown) | µM | 0.006 |
| CS(=O)(=O)C1CCOc2cc3sc(C(=O)Nc4cc(Cl)nc(Oc5cccc(OC(F)(F)F)c5)c4)cc3cc21 (stereo not shown) | µM | 0.0059 |
| CS(=O)(=O)C1CCOc2cc3sc(C(=O)Nc4cc(Cl)nc(Oc5ccc(F)c(F)c5)c4)cc3cc21 (stereo not shown) | µM | 0.0064 |
| CS(=O)(=O)C1CCC(F)(F)c2cc3sc(C(=O)Nc4cc(Cl)nc(Oc5ccc(Cl)cc5)c4)cc3cc21 (stereo not shown) | µM | 0.029 |
| CS(=O)(=O)N1CCCOc2cc3sc(C(=O)Nc4cc(Cl)nc(Oc5ccc(Cl)cc5)c4)cc3cc21 | µM | 0.01 |

[P] Cc1cc(Cl)ccc1Oc1cc(NC(=O)c2cc3cc4c(cc3s2)OCCC4S(C)(=O)=O)cc(Cl)n1 (stereo not shown)
[Q] CS(=O)(=O)[C@@H]1CCOc2cc3sc(C(=O)Nc4cc(Cl)nc(Oc5ccc(Cl)cc5)c4)cc3cc21
Task: When the recorded IC50 values are compared, which is smaller: that of P or that of Q ? I would appreciate it if you answered with the label of your choice.
Result: P
(P: 0.011 µM, Q: 1.5 µM)

----------
# Test system: MDA-MB-468
# methodDescription: Cell growth inhibition assay (CellTiter-Glo), breast cancer cell line MDA-MB-468
# Format: cell-based
# conditionSummary: Homo sapiens; MDA-MB-468 cells, 96 hours
assayReadout: IC50 (µM)

| compound | IC50 [µM] |
| --- | --- |
| CS(=O)(=O)C1CCOc2cc3sc(C(=O)Nc4cc(Cl)nc(Oc5ccc(F)cc5)c4)cc3cc21 (stereo not drawn) | 0.0046 |
| COc1cc(Cl)cc(Oc2cc(NC(=O)c3cc4cc5c(cc4s3)OCCC5S(C)(=O)=O)cc(Cl)n2)c1 (stereo not drawn) | 0.0085 |
| Cc1cccc(Oc2cc(NC(=O)c3cc4cc5c(cc4s3)OCCC5S(C)(=O)=O)cc(Cl)n2)c1F (stereo not drawn) | 0.012 |

[A] COc1cc(Cl)ccc1Oc1cc(NC(=O)c2cc3cc4c(cc3s2)OCCC4S(C)(=O)=O)cc(Cl)n1 (stereo not drawn)
[B] CS(=O)(=O)C1CCC(F)(F)c2cc3sc(C(=O)Nc4cc(Cl)nc(Oc5ccc(Cl)cc5)c4)cc3cc21 (stereo not drawn)
Task: Of A and B , which one carries the higher reported IC50? Give the chosen item's label as your response.
Result: B
(B: 0.026 µM, A: 0.0078 µM)
